# Test system: TK-10 renal
# Procedure Details: NCI tumour cell line growth inhibition, 48 h
Parameter GI50: see the listing below.
Experimental Readout: GI50

1. Cc1ccc(C2C3Cc4ccccc4C3=NN2c2ccc(S(=O)(=O)NC(=O)NC3CCCCC3)cc2)cc1 (configuration not stated): 11.7 µM
2. COc1ccc(C(=O)c2cc(OC)c(OC)c(OC)c2)cc1OC(=O)C(Cl)(Cl)Cl: 34.1 µM
3. COc1ccc(/C=C/C(=O)c2ccc(Cl)cc2Cl)cc1: 18.9 µM
4. COc1ccc(OC)c(/C=C/C(=O)N/N=C/c2ccccc2)c1: 16.6 µM
5. Cc1ccc2cc3c(cc(C)c4ccccc43)c3c2c1CC3: 65.6 µM
6. O=C(/C=C\Sc1ccccn1)c1cccc(Br)c1: 3.25 µM
7. COC(=O)C1=C(C(=O)OC)SC(=C(Cl)C(=S)Oc2ccccc2N)S1: 49.5 µM
8. CC(C)(C)C(=O)OCCNc1nc(-c2ccccc2)nc2ccccc12: 11 µM
9. O=C1CCc2c(Oc3ccc4c(c3)[C@H]3[C@@H](O4)[C@@H]3c3nc4ccc(C(F)(F)F)cc4[nH]3)ccnc2N1: 1.61 µM
10. NCCNC1=CC(=O)c2nc3ccccc3c3ccnc1c23: 25.9 µM
11. Cc1ccc(-c2nc3nc(-c4ccc(Br)cc4)nc(N4CCCNCC4)c3o2)cc1: 20 µM
12. COc1cccc(/C=C2\COc3ccc(O)c(O)c3C2=O)c1: 1.74 µM
13. COc1ccc(C2=C(c3cn(C)c4ccccc34)C(=O)OC2)cc1OC: > 100 µM
14. CCCC(=O)OCC1OC(n2cnc3c(=S)nc(N)[nH]c32)C(OC(=O)CCC)C1OC(=O)CCC (configuration not stated): 1.91 µM
15. N#C/C(=C1C=C/C(=N/O)C(Cl)=C/1)c1ccc(Cl)cc1: 5.25 µM
16. COc1ccc2c(c1)O/C(=C\c1ncc([N+](=O)[O-])n1C)C2=O: 1.26 µM
17. COC(=O)[C@@]1(C)CCC[C@]2(C)[C@H]3Cc4occc4[C@H](C)[C@@H]3CC[C@@]12O: 24.5 µM
